The measured values listed here are drawn from a melting point compilation (Tetko et al.; mined from patent text by program, amines drawn as free bases though some values may be those of a salt).

readout-type: melting point

compound | melting point
COc1nc(OC)nc(Oc2cccc3c2C(=S)OC3C)n1 (stereo not given) | 177 to 178 °C
CC(C)OC(=O)Cn1c(=O)n(C)c(=O)n(-c2cc(N=c3sc(=S)n4n3CCC=C4)c(F)cc2Cl)c1=O | 105 to 113 °C
CC(=O)N1CCC(n2cc(C3=C(c4cn(C)c5ccccc45)C(=O)NC3=O)c3ccccc32)CC1 | > 293 °C
COc1cc(F)c(-c2cncc(OC3SCC(O)C(O)C3O)c2)c(F)c1 (stereo not given) | 200 °C
CC1(C)OC(=O)C[C@H]2NC(=O)[C@H]21 | 180 to 182 °C
O=C(CCCC(Cc1cccc2ccccc12)C(=O)O)c1ccccc1 (stereo not given) | 134 to 136 °C

Exam item: Please list melting point recorded for the compound COc1ccc(S(=O)(=O)n2ccc3cccc(-c4ccc(F)cc4)c32)cc1
Marked response: 181 to 182 °C

Exam item: Please list melting point recorded for the compound CCCc1c(O)ccc2c1OC(C)(CCC(=O)O)CC2=O (stereo not given)
Marked response: 152 to 153 °C

Exam item: Please list melting point recorded for the compound CCCCCCCCCCCCCCCC(=O)Nc1cc([N+](=O)[O-])ccc1O
Marked response: 146 to 148 °C

Exam item: Please list melting point recorded for the compound Nc1ccc2cccc(N3CCNCC3)c2c1
Marked response: 184 to 186 °C

---

readout-type: melting point

Exam item: Please list melting point recorded for the molecule NS(=O)(=O)c1cc2[nH]c(=O)c(=O)[nH]c2cc1[N+](=O)[O-]
Marked response: > 330 °C

Exam item: Please list melting point recorded for the molecule Nc1cc(C(=O)O)cc(S(N)(=O)=O)c1Oc1cccc(C(F)(F)F)c1
Marked response: 270 °C

Exam item: Please list melting point recorded for the molecule CO/N=C(/C(N)=O)c1ccccc1COC(C)=O
Marked response: 121 to 123 °C

Exam item: Please list melting point recorded for the molecule O=C1CCC(c2ccc(Br)cc2)N1 (configuration not stated)
Marked response: 142 °C

Exam item: Please list melting point recorded for the molecule COCc1c(C(=O)OC(C)C)ncc2[nH]c3cccc(Oc4ccc(Cl)cn4)c3c12
Marked response: 190 to 191 °C

Exam item: Please list melting point recorded for the molecule CCC(C)(CC)C(=O)C=C(P(=O)(O)O)P(=O)(O)O
Marked response: 146 to 147 °C

Exam item: Please list melting point recorded for the molecule CCOC(=O)c1c(-c2ccccc2Cl)c2cc(Cl)ccc2n(C)c1=O
Marked response: 139 to 140 °C

Exam item: Please list melting point recorded for the molecule CCn1ncc2c(NC3CCc4ccccc43)c3ccccc3nc21 (configuration not stated)
Marked response: 233 to 235 °C

Exam item: Please list melting point recorded for the molecule CCc1ccc(NC(=O)Nc2cc(C(C)(C)C)sc2C(=O)NC)cc1
Marked response: 101 to 104 °C

Exam item: Please list melting point recorded for the molecule O=C1CCC(N2Cc3c(OCc4cccc(CN5CCC(c6ccc(F)cc6F)CC5)c4)cccc3C2=O)C(=O)N1 (configuration not stated)
Marked response: 211 to 213 °C

Exam item: Please list melting point recorded for the molecule COC(=O)NCc1nc(C(C)C)c(Sc2cc(Cl)cc(Cl)c2)n1C
Marked response: 138 to 139 °C

Exam item: Please list melting point recorded for the molecule O=C(Nc1ccc(Br)cc1)Nc1cc(C(F)(F)F)ccc1Oc1ccccc1C(=O)O
Marked response: 229 to 231 °C

Exam item: Please list melting point recorded for the molecule CCOC(=O)c1cnn(-c2cccc(Cl)n2)c1S(N)(=O)=O
Marked response: 125 to 128 °C

---

readout-type: melting point

compound | assay-result
COC1(c2cc(F)cc(Sc3ccc4c(c3)CCC(=S)N4C)c2)CCOCC1 | 134 °C
CN1CC(=O)Nc2ccc(Br)cc2C1=O | 260 to 261 °C
COC(=O)c1cc(C(C)=O)cs1 | 94 to 96 °C
CCCCc1oc2ccccc2c1-c1ncc(-c2ccc3cc(OC(Cc4ccccc4)C(=O)OC)ccc3c2)o1 (centres undefined) | 122 to 124 °C
COc1cc(COc2cc(/C=C/c3cscn3)n(-c3ccccc3)n2)ccc1OCc1nc(-c2ccco2)oc1C | 154 to 155 °C
Cc1cc(OCc2cnc(-c3ccc(C(F)(F)F)cc3)nc2C2CC2)ccc1OC(C)(C)C(=O)O | 191 to 192 °C
COc1ccc(C(C#Cc2ccccc2)CC(=O)N(C)C)cc1OC1CCCC1 (racemic) | 87 to 89 °C
COc1cc2oc(=O)c(CCN3CCN(c4ccccc4)CC3)c(C)c2c(OC)c1OC | 136 to 137 °C

Exam item: Please list melting point recorded for the compound CC(=O)OCCCCCCOc1ccc([N+](=O)[O-])c(C=O)c1
Marked response: 42 to 43 °C

---

readout-type: melting point (°C)

smiles-notation | melting point [°C]
CC[C@@H]1CCCN1CCc1cc2cc(-c3ccc(C#N)cc3)ccc2o1 | 147
COC(=O)c1ccc(OC)c(NC(=NCl)c2ccc(Cl)cc2)c1 | 120

---

Parameter: melting point. Scope: all listed entries.

compound | melting point
CCCCCCCCCCCCCCCCCCOc1cc(C(=O)OC)c([N+](=O)[O-])c(C(=O)OC)c1 | 65 to 68 °C

Exam item: Please list melting point recorded for the compound Cc1c(NC(=O)c2ccc(CC(=O)CC(C)C)cc2)ccc2cc(CN3CCCC3)cnc12
Marked response: 153 °C

Exam item: Please list melting point recorded for the compound N#CC1=CCC(c2ccccc2)c2ccccc21 (centres undefined)
Marked response: 66 to 67 °C

Exam item: Please list melting point recorded for the compound CC(C)c1ccc(-n2nc(O)c3c(=O)c4ccc(Cl)cc4[nH]c3c2=O)cc1
Marked response: 393 to 394 °C

Exam item: Please list melting point recorded for the compound O=c1c(CO)cc(-c2ccc3c(c2)CCO3)nn1CC=Cc1ccc(Cl)cc1
Marked response: 131 to 141 °C

Exam item: Please list melting point recorded for the compound CCCCCC(CC(=O)Nc1cc(C(N)=O)ccc1C(C)(C)C)c1cc(C(=O)OC)c(OC)cc1OC (centres undefined)
Marked response: 101 to 103 °C

Exam item: Please list melting point recorded for the compound O=C(O)c1cc2ccnc(N(Cc3ccccc3)Cc3ccccc3)c2[nH]1
Marked response: 114 to 120 °C

Exam item: Please list melting point recorded for the compound S=C=Nc1ccc2oc(-c3sccc3CN3CCOCC3)nc2c1
Marked response: 117 to 118 °C

Exam item: Please list melting point recorded for the compound CCC1CCn2c(nc(-c3ccncc3)cc2=O)N1 (centres undefined)
Marked response: 244 to 246 °C

---

Parameter: melting point. Scope: all listed entries.

Below are worked cases with known answers.
compound | assay-result
O=C1C(=O)N(C(c2ccccc2)c2ccccc2)c2cccc(F)c21 | 168 to 171 °C
N#Cc1cccc2c(N)c([N+](=O)[O-])ccc12 | 260 to 262 °C
CCCCCCCCCCCCCC(C)Oc1c(I)cc(I)cc1I (configuration not stated) | 56 to 58 °C
CC(=O)Oc1ccc(O[C@@H]2CCN(C)C[C@H]2c2ccccc2)cc1 (relative stereo) | 79.5 to 82 °C
COc1ccc(C(=O)Nc2ccccc2)cc1NCc1ccc(OC(C)=O)cc1 | 193 to 195 °C

Exam item: Please list melting point recorded for the compound CC(=O)SCC(CC(C)C)C(=O)Nc1cccc(C(=O)O)c1 (configuration not stated)
Marked response: 184 to 186 °C

Exam item: Please list melting point recorded for the compound CCCCc1ncc(/C=C(\Cc2cccs2)C(=O)O)n1Cc1ccccc1C#N
Marked response: 210 to 212 °C

Exam item: Please list melting point recorded for the compound O=[N+]([O-])C1([N+](=O)[O-])COC1
Marked response: 70 to 71 °C

Exam item: Please list melting point recorded for the compound Cc1ccc(-n2nc(C#N)cc2-c2ccc(S(C)(=O)=O)cc2)cc1Cl
Marked response: 174 to 176 °C

Exam item: Please list melting point recorded for the compound COC(C)(C)C(=NO)n1ccnc1
Marked response: 155 to 160 °C

Exam item: Please list melting point recorded for the compound COC(=O)c1sccc1N=NN(C)C
Marked response: 74 to 76 °C

---

Parameter: melting point. Scope: all listed entries.

Exam item: Please list melting point recorded for the molecule COc1ccccc1-c1coc2cc(O)ccc2c1=O
Marked response: 222 to 224 °C

---

Parameter: melting point. Scope: all listed entries.

Below are worked cases with known answers.
compound | melting point
Cc1cc(-c2cnn3c(O)ncnc23)ccc1S(C)=O (stereo unspecified) | 281 to 282 °C
CC1(C)OC(=S)Nc2ccc(-c3cc(F)cc(C(F)(F)F)c3)cc21 | 204 to 206 °C
CC(C)CC(S)C(=O)NC1(C(=O)NC(CC2(c3cccc4ccccc34)C=CC(c3ccccc3)=CC2)C(=O)O)CCCC1 (stereo unspecified) | 187 to 189 °C

Exam item: Please list melting point recorded for the compound CC(=O)Nc1c(C(=O)c2ccncc2)[nH]c2cc(Cl)ccc12
Marked response: 262 to 264 °C

Exam item: Please list melting point recorded for the compound COc1cc(C)c(C(=O)c2c(O)ccc(Br)c2C)c(OC)c1OC
Marked response: 119 to 120 °C

Exam item: Please list melting point recorded for the compound CN1CCN(CCCn2c(NC(=O)c3ccc(Cl)c(Cl)c3)nc3ccccc32)CC1
Marked response: 166 to 168 °C

Exam item: Please list melting point recorded for the compound COC(=O)Cc1cc(OC)ccc1C(C)=O
Marked response: 74 to 76 °C

Exam item: Please list melting point recorded for the compound COc1cccc2c3c(c(C)nc12)CCN3c1ccccc1C
Marked response: 182 to 183 °C

Exam item: Please list melting point recorded for the compound O=C(Nc1cccnc1)NC(NC(=O)c1ccc(Cl)cc1)C(Cl)(Cl)Cl (stereo unspecified)
Marked response: 166 to 168 °C

Exam item: Please list melting point recorded for the compound CCOc1nn(Cc2ccc(OCc3nc(-c4ccco4)oc3C)c(OC)c2)cc1CCC(=O)O
Marked response: 133 to 134 °C

Exam item: Please list melting point recorded for the compound O=C1NN=C(c2ccc3c(c2)C2(CCCS2)C(=O)N3)CS1 (stereo unspecified)
Marked response: 284 °C

Exam item: Please list melting point recorded for the compound O=C(O)c1ccc(-c2nc(-c3ccc(Cl)cc3)cs2)cc1
Marked response: 284 to 285 °C

Exam item: Please list melting point recorded for the compound COc1cc(C=C2C(=O)CCc3cc(Cl)ccc32)c([N+](=O)[O-])cc1OC
Marked response: 56 to 58 °C

Exam item: Please list melting point recorded for the compound CN1C[C@@H](O)[C@H](Oc2ccccc2)C1 (relative stereo)
Marked response: 89 to 90 °C

Exam item: Please list melting point recorded for the compound CCCc1cc(-c2ccc(Cl)cc2)nc2c(C(=O)Nc3cccc(S(N)(=O)=O)c3)cnn12
Marked response: 252 to 254 °C

Exam item: Please list melting point recorded for the compound Ic1ccc2c(c1)ncn2-c1cccc(-n2cccn2)c1
Marked response: 209 to 211 °C

Exam item: Please list melting point recorded for the compound CC1(C)CCC(C)(C)c2cc(N(Cc3cccs3)C(=O)Nc3ccc(C(=O)O)cc3)ccc21
Marked response: 167 to 170 °C

Exam item: Please list melting point recorded for the compound O=C(NC1CCCCC1)Oc1ccc(N=C=S)cc1
Marked response: 170 to 173 °C

Exam item: Please list melting point recorded for the compound Cn1nc(CO)nc1NCCCOc1cccc(CN2CCCCC2)c1
Marked response: 118 to 119 °C

Exam item: Please list melting point recorded for the compound CC(C(=O)OC1(C)CCCCC1)c1ccc2nc(N)sc2c1 (stereo unspecified)
Marked response: 165 to 167 °C

Exam item: Please list melting point recorded for the compound Nc1cc[nH]c(=O)c1Br
Marked response: 255 to 258 °C
